IC50 values, listed per item
tested.on: VEGFR2 kinase (Homo sapiens, UniProt P35968)
Sequence (P35968 834-1162 limits assumed): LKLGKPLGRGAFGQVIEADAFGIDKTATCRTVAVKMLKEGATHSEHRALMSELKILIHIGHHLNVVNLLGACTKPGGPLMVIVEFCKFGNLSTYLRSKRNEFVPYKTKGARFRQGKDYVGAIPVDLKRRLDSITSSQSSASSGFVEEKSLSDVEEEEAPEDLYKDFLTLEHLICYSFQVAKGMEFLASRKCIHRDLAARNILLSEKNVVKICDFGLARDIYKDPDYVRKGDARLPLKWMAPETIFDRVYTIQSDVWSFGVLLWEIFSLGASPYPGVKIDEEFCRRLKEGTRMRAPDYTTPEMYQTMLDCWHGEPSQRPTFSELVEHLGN
test.readout: IC50

CCCS(=O)(=O)Nc1ccc(F)c(Nc2ccnc3ccc(-c4ccnc(F)c4)cc23)c1F [compound 25] = > 3 µM
CCCS(=O)(=O)Nc1ccc(F)c(Nc2ncnc3ccc(-c4ccnc(F)c4)cc23)c1F [compound 24] = > 3 µM
O=S(=O)(Nc1ccc(F)c(Nc2ncnc3ccc(-c4cccnc4F)cc23)c1F)c1ccccc1 [compound 21] = > 3 µM
CCCS(=O)(=O)Nc1ccc(F)c(Nc2ncnc3ccc(-c4cnccc4F)cc23)c1F [compound 66] = > 3 µM
CCCS(=O)(=O)Nc1ccc(F)c(Nc2ncnc3ccc(-c4ccnc(OC)c4)cc23)c1F [compound 31] = > 3 µM
CCCS(=O)(=O)Nc1ccc(F)c(Nc2ncnc3cc(F)c(-c4cccnc4F)cc23)c1F [compound 7] = > 3 µM
CCCS(=O)(=O)Nc1ccc(F)c(Nc2ncnc3ccc(-c4cncc(F)c4)cc23)c1F [compound 46] = > 3 µM
CCCS(=O)(=O)Nc1ccc(F)c(Nc2ncnc3ccc(-c4cccc(OCCN(C)C)n4)cc23)c1F [compound 39] = > 3 µM

Where these numbers come from: patent US9321762B2
